Source: a melting point compilation (Tetko et al.; mined from patent text by program, amines drawn as free bases though some values may be those of a salt)

This section presents compounds with their documented melting point values.
ASSAY_METRIC: melting point

Cc1ccc2oc(S(=O)(=O)c3ccc(=O)[nH]n3)c(C)c2c1
246 to 247 °C
C(#Cc1cccc2ccccc12)c1ccccc1
51 to 53 °C
COc1cc(OCc2ccc(C(=O)N(C)C3CCCCC3)cc2)cc(OC)c1OC
116 °C
NCC(=O)Nc1ccc(Cl)cc1C(=O)c1c(F)cccc1F
133 to 135 °C
COc1ccc(OCCCN2CCN(c3ccc(Cl)nn3)CC2)cc1
123 °C
COC(=O)Cc1ccc(C(=O)c2ccc(C)cc2)[nH]1
118 to 120 °C
O=C(NNCCO)c1ccc(NCc2cc(Br)ccc2OCc2ccccc2)cc1
121 to 122 °C
C=CCCCCCCCCc1nc2c(s1)NCCCC2
94 to 95 °C
O=C1CCC(=O)N1c1cccc(OCc2nc3ccccc3s2)c1
175 to 176 °C
O=C(O)C=Cc1cccc(Sc2c[nH]c3ccccc23)c1
165 to 167 °C
COc1cc(Nc2nccc(-c3ccc(NCCC4CCCN4C)nc3)n2)cc(OC)c1OC (configuration not stated)
176 to 177 °C
O=C(O)C=Cc1cccc(Oc2ccccc2)c1
107 to 109 °C
O=S(=O)(CCCCl)Nc1ccc(N2CCN(c3ccc(OCC(O)(Cn4cncn4)c4ccc(Cl)cc4Cl)cc3)CC2)cc1 (configuration not stated)
80 to 81 °C
O=C(O)c1ccc2c(c1)C(=O)c1cccc(C(=O)O)c1S2(=O)=O
350 to 351 °C
COCc1c(I)cc(Cl)nc1OC
69 to 72 °C
OC(CCl)c1ccc(-c2ccc(SC(F)F)cc2)cc1 (configuration not stated)
66 to 68 °C
COc1ccc(Oc2cccnc2)cc1C#CC(C)N(O)C(N)=O (configuration not stated)
153 to 154 °C
COc1ncc(CN2C(=O)C3(COc4cc5c(cc43)OCCO5)c3ccccc32)cn1 (configuration not stated)
102 to 104 °C
COc1cc(O)c2c(=O)c(OC)c(-c3ccc(O)c(OC)c3)oc2c1
171 to 173 °C
O=C(Oc1ccc(F)cc1)c1cccc(F)c1
63.5 to 66 °C
Cc1ccc(Oc2ccc(C#CC(C)N(O)C(N)=O)o2)cn1 (configuration not stated)
149 °C
CCc1nccc(NC(=O)Cc2ccc(Oc3ccc([N+](=O)[O-])cn3)cc2)c1Cl
128 to 131 °C
COc1c2c(c(OC)c(OC)c1OC)CCC(CCn1ccccc1=O)CC2
84 to 87 °C
O=C(Nc1ccc2ccc(Cl)nc2n1)C1CCC1
192 °C
CCOC(=O)Cc1nc2ccccc2n1-c1ccccc1
87 to 89 °C
O=C(O)c1ccc(OCc2ccc(Cl)cc2)cc1OCc1ccccc1
150 to 152 °C
CN1C(=O)C2(COc3cc4c(cc32)OCCO4)c2c(C(=O)NCc3ccccn3)cccc21 (configuration not stated)
214 to 215 °C
c1ccc(-c2nc(CCCCCCc3nnn[nH]3)oc2-c2ccccc2)cc1
132 °C
O=C([C@H](Cc1ccccc1)NC1CCCCC1)N1CCN(C(c2ccc(F)cc2)c2ccc(F)cc2)CC1
60 to 64 °C
O=C(O)C1CC(=O)N(c2cc(C(F)(F)F)cc(C(F)(F)F)c2)C1 (configuration not stated)
108 to 109 °C
Cc1noc(NS(=O)(=O)c2ccc(Cl)cc2)c1Br
145 to 150 °C
CCn1c(=O)c2c(nc(/C=C/c3cc(OC)c(OC(C)=O)c(OC)c3)n2C)n(CC)c1=O
248 to 249 °C
Cc1ccccc1CN(c1ncnc2c1ncn2C1OC(CO)C(O)C1O)C1CCCCC1 (configuration not stated)
129 to 130 °C
Cc1cc2cc(CN3CCCC3)cnc2cc1NC(=O)c1ccc(-c2ccc(Cl)s2)cc1
216 °C
O=Cc1cc(Br)c(O)c(OCc2ccccc2)c1
160 to 162 °C
O=C1Nc2ccccc2C1=Cc1cccs1
208 to 210 °C
COC(=O)C1CCC2C3CCC4CC(O)C(OC)CC4(C)C3C(NC3CCCCC3)CC12C (configuration not stated)
141 to 143 °C
CCCCCCOc1c(CBr)ccc2c(OCCCCCC)c(CBr)ccc12
58 to 60 °C
COC(=O)[C@H](O)[C@@H](N)c1ccc(C(N)=O)cc1
206 °C
O=C(CCc1ccc(F)cc1)Cn1ccnc1
69 to 70 °C
CC(C)C(=O)NCCOc1ccc([N+](=O)[O-])cc1
102 to 103 °C
COc1ccc(C(=O)C=Cc2ccccc2F)c(OC)c1OC
75 to 75.8 °C
